# Tested Target: Multidrug efflux pump subunit AcrB (Escherichia coli (strain K12)) (UniProt P31224)
# Sequence (whole entry): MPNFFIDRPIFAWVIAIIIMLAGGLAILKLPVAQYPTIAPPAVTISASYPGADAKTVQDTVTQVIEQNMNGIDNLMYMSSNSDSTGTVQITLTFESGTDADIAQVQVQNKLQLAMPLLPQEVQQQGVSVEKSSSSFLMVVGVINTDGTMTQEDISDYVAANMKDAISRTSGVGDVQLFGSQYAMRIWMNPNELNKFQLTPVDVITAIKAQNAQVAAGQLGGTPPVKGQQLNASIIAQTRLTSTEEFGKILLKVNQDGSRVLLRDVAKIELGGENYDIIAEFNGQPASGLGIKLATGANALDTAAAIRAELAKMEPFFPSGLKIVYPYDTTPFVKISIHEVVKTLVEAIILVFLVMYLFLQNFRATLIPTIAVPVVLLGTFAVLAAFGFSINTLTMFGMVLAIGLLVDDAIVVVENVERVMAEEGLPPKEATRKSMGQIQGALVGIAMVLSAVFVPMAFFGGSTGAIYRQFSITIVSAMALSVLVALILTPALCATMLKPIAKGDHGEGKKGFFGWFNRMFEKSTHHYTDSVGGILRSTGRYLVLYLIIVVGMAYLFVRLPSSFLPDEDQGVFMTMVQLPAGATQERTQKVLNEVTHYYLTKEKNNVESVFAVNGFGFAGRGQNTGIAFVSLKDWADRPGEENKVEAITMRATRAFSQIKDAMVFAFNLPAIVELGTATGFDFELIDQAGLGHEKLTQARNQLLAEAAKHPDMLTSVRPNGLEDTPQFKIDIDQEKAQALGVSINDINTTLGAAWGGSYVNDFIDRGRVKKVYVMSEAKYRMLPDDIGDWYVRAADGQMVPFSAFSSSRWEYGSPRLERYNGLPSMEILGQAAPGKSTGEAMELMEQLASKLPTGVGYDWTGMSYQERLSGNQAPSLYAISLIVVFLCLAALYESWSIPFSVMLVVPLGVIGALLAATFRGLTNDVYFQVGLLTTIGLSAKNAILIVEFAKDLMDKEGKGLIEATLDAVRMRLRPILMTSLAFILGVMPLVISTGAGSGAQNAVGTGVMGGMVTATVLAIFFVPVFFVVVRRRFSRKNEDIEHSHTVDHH
# Procedure Text: Inhibition of AcrB in Escherichia coli BW25113 assessed as potentiation of pyridomycin-induced antibacterial activity incubated for 20 hrs by resazurin microtitre assay; note: test concentration or dose not given here
Property: EC90

FC(F)(F)c1cnc(N2CCCNCC2)c(Cl)c1 | > 500 µM
NCCOC(=O)c1cnc(N2CCNCC2)c(Cl)c1 | > 250 µM
C[C@H]1CNCCN1c1ncc(C(F)(F)F)cc1Cl | > 500 µM

// switching to the query compound
Asked: Which EC90 is listed for FC(F)(F)c1cnc(C2=CCNCC2)c(Cl)c1 ?
Given back: > 250 µM
